system: 695427-040-R-J1-PDC complex spheroids, viability percent T/C; assay: Anticancer human tumor 695427-040-R-J1-PDC patient-derived colon adenocarcinoma cell line growth inhibition [GQUAD]; details: second compound 0.0316 µM; first compound 3.16 µM; hits give low values;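 note: spheroids exposed to compounds for seven days before readout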
Answer each item with its documented viability, T/C.
Give your result in % as a bare value.

Looking up Cc1cccc(N(C)C(=O)C2C(O)CCN2c2nc(C)cc(C(F)(F)F)c2C#N)c1 (stereo not given) + CN(C)c1ccc(Nc2c3ccc(NC(=O)CCN4CCCC4)cc3nc3cc(NC(=O)CCN4CCCC4)ccc23)cc1 , I see its viability, T/C listed as 107

compound CCCS(=O)(=O)Nc1ccc(F)c(C(=O)c2c[nH]c3ncc(-c4ccc(Cl)cc4)cc23)c1F + Cc1cnc(CNC(=O)c2c(=O)c3ccc(N4CCCN(C)CC4)nc3n3c2sc2ccccc23)cn1 , viability, T/C observed: 110

Input CC1COCCN1c1cc(C2(O)CC3CCC(C2)O3)c2cnn(-c3ccn[nH]3)c2n1 (stereo not given) + Cc1[nH]c2ccc(F)cc2c1-c1nc2c3cccnc3c3ncccc3c2[nH]1 . Output viability, T/C: 36

The reported value for C=CC(=O)N1CCN(c2nc(=O)n(-c3c(C)ccnc3C(C)C)c3nc(-c4c(O)cccc4F)c(F)cc23)C(C)C1 (stereo not given) + CN(C)c1ccc(Nc2c3ccc(NC(=O)CCN4CCCC4)cc3nc3cc(NC(=O)CCN4CCCC4)ccc23)cc1 in terms of viability, T/C is 106

get_value(item= Nc1ccn(C2OC(CO)C(O)C2(F)F)c(=O)n1 (stereo not given) + Cc1cnc(CNC(=O)c2c(=O)c3ccc(N4CCCN(C)CC4)nc3n3c2sc2ccccc23)cn1 , readout=viability, T/C) returns 55.1
